System: N2a-APP695 cells
Experiment: MTS cell viability assay in the same wells as the ELISA
Settings: MTS assay, N2a-APP695 cells; class symbol
measuredAttribute: Toxicity

Please review the following examples before continuing.
1) CC(C)n1cnc2c(N(C)Cc3ccccc3)nc(N)nc21
+
2) CCN(Cc1ccccc1)c1nc(N[C@@H](CO)C(C)C)nc2c1ncn2C1CCCC1
+
3) CCCN(Cc1ccccc1)c1nc(N[C@H](CC)CO)nc2c1ncn2C(C)C
+
4) CC[C@H](CO)Nc1nc(N(CC)Cc2ccccc2)c2ncn(C(C)C)c2n1
+
5) CC[C@H](CO)Nc1nc(N(CC)Cc2ccccc2)c2ncn(Cc3ccccc3)c2n1
+
6) CC[C@H](CO)Nc1nc(N(C)Cc2ccc(F)cc2)c2ncn(C(C)C)c2n1
+
7) CC[C@H](CO)Nc1nc(N(CC)c2ccccc2)c2ncn(C(C)C)c2n1
+
8) CC[C@@H](CO)Nc1nc(N(C)Cc2ccc(F)cc2)c2ncn(C(C)C)c2n1
+

The following compounds each have a reported value; give each one's Toxicity.
1. CC[C@H](CO)Nc1nc(N(C)Cc2ccccc2)c2ncn(C(C)C)c2n1
2. CC[C@H](CO)Nc1nc(N(C)Cc2ccc(-c3ccccn3)cc2)c2ncn(C(C)C)c2n1
3. CC[C@@H](CO)Nc1nc(N(C)Cc2ccc(-c3ccccn3)cc2)c2ncn(C(C)C)c2n1

Marked response:
["+", "+", "+"]

* * *

Test system: N2a-APP695 cells
Assay: MTS cell viability assay in the same wells as the ELISA
Settings: MTS assay, N2a-APP695 cells; concentration above which toxic
Answer each item with its documented Toxicity (concentration in brackets).

1. CCCN(Cc1ccccc1)c1nc(N[C@H](CC)CO)nc2c1ncn2C(C)C
> 12 µM
2. CC[C@H](CO)Nc1nc(N(C)Cc2ccccc2)c2ncn(C3CCCC3)c2n1
> 20 µM
3. CC[C@H](CO)Nc1nc(N(C)Cc2ccc(F)cc2)c2ncn(C(C)C)c2n1
> 12 µM

Working through the 3 compounds below one at a time, give Toxicity (concentration in brackets) for each.
1. CC(C)n1cnc2c(N(C)Cc3ccc(F)cc3)nc(NC3CCNCC3)nc21
2. CC[C@H](CO)Nc1nc(N(CC)Cc2ccccc2)c2ncn(C(C)C)c2n1
3. CC[C@H](CO)Nc1nc(N(CC)c2ccccc2)c2ncn(C(C)C)c2n1

Marked response:
> 12 µM
> 31 µM
> 100 µM

Consider the following items and state reported Toxicity (concentration in brackets) for each.
1. CC[C@H](CO)Nc1nc(N(CC)Cc2ccccc2)c2ncn(Cc3ccccc3)c2n1
2. CN(Cc1ccccc1)c1ncnc2c1ncn2C1CCCC1
3. CC[C@H](CO)Nc1nc(N(C)c2ccc(OC)cc2)c2ncn(C(C)C)c2n1

Marked response:
1. > 12 µM
2. > 31 µM
3. > 21 µM

* * *

Tested on: Aβ42
Experiment: Effect of γ-secretase inhibitors/modulator on Aftin-induced production of Aβ42
Format: cell-based
Settings: γ-secretase inhibitor, Aftin-induced production
From the text: To investigate the importance of γ-secretases in the effects of Aftins according to the invention, two potent pharmacological inhibitors of γ-secretases, DAPT (N-[(3,5-Difluorophenyl)acetyl]-L-alanyl-2-phenyl]glycine-1,1-dimethylethyl ester) and BMS 299897 were used.
measuredAttribute: pIC50
Give bare numbers, as −log10 of the molar value.

1. C[C@H](c1ccc(F)cc1CCCC(=O)O)N(c1cc(F)ccc1F)S(=O)(=O)c1ccc(Cl)cc1
7.54

Kindly consider the entry below.
Exam item: Which value of pIC50 has been reported for `C[C@H](NC(=O)Cc1cc(F)cc(F)c1)C(=O)N[C@H](C(=O)OC(C)(C)C)c1ccccc1` in the records?
Marked response: 7.37
